This collection of values is drawn from patent US7863446B2.

Listing of recorded inhibition at 10 µM by entry.
STUDY TARGET: purified recombinant COX-1 (Homo sapiens, UniProt P23219)
Sequence (P23219 24-599): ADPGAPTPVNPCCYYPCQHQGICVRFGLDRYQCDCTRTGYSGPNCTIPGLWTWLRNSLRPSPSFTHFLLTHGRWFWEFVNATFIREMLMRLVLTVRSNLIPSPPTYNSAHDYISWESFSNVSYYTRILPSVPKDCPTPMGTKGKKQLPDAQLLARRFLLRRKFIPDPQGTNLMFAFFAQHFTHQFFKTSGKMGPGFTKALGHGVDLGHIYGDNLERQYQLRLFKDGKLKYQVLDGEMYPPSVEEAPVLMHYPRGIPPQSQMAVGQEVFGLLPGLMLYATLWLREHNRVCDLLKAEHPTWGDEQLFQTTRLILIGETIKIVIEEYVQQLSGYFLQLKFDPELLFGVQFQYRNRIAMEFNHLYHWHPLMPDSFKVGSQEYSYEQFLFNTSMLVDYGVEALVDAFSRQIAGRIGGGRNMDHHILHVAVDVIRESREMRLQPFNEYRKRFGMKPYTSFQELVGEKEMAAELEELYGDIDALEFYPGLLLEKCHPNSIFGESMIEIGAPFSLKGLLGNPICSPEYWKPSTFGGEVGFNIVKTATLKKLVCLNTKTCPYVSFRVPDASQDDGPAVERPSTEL
EXPERIMENT NOTES: COX-1 enzyme based assay
Type: biochemical
CONDITIONS USED: 10 μM; NA = No activity; read-out: % Inhibition in rEnzyme Assay COX-1
Number in %, nothing else.

| STRUCTURE AS SMILES | inhibition at 10 µM / % |
| --- | --- |
| CNS(=O)(=O)c1ccc(-c2c(N)nc(C(F)(F)F)nc2-c2ccc(S(C)(=O)=O)cc2)cc1 | 50.4 |
| NS(=O)(=O)c1cccc(-c2c(-c3ccc(F)cc3)nc(C(F)(F)F)nc2N2CCN(c3ccccn3)CC2)c1 | 56.9 |
| NS(=O)(=O)c1cccc(-c2c(-c3ccccc3)nc(C(F)(F)F)nc2N2CCNCC2)c1 | 7.1 |
| NS(=O)(=O)c1cccc(-c2c(-c3ccccc3)nc(C(F)(F)F)nc2N2CCN(c3ccccn3)CC2)c1 | 9.59 |

Fill in reported inhibition at 10 µM for this entry: NS(=O)(=O)c1cccc(-c2c(-c3ccccc3)nc(C(F)(F)F)nc2N2CCN(c3ncccn3)CC2)c1
5.7

Fill in reported inhibition at 10 µM for this entry: NS(=O)(=O)c1cccc(-c2c(-c3ccc(F)cc3)nc(C(F)(F)F)nc2N2CCN(c3ncccn3)CC2)c1
45.5

Fill in reported inhibition at 10 µM for this entry: NS(=O)(=O)c1cccc(-c2c(-c3ccccc3)nc(C(F)(F)F)nc2N2CCN(c3ccc(C(F)(F)F)cn3)CC2)c1
19.2
